Examples of compounds with documented critical aggregation concentration (CAC) follow.
- Assay Overview: Critical aggregation concentration from SAXS fit analysis
- Type: physicochemical
Non-standard residues stand in square brackets, D forms with d. Residues, ends and D or L forms follow the SMILES beside them. N(4-F-Bzl)Gly = O=C(O)CNCc1ccc(F)cc1; NBzl(4-I)Gly = O=C(O)CNCc1ccc(I)cc1; Nphe = O=C(O)CNCc1ccccc1; Nlys = NCCCCNCC(=O)O

Worked examples, 2 compounds total:
| Compound | critical aggregation concentration (CAC) |
| --- | --- |
| NCCCCNCC(=O)N(CC(=O)N(CCCCN)CC(=O)N(CC(=O)N(CCCCN)CC(=O)N(CC(=O)N(CCCCN)CC(=O)N(CC(=O)N(CCCCN)CC(=O)N(CC(N)=O)Cc1ccc(I)cc1)Cc1ccc(I)cc1)Cc1ccc(I)cc1)Cc1ccc(I)cc1)Cc1ccc(I)cc1 [Compound 23] (H-[Nlys][NBzl(4-I)Gly][Nlys][NBzl(4-I)Gly][Nlys][NBzl(4-I)Gly][Nlys][NBzl(4-I)Gly][Nlys][NBzl(4-I)Gly]-NH2) | 0.4 mg/mL |
| NCCCCNCC(=O)N(CC(=O)N(CCCCN)CC(=O)N(CC(=O)N(CCCCN)CC(=O)N(CC(=O)N(CCCCN)CC(=O)N(CC(=O)N(CCCCN)CC(=O)N(CC(N)=O)Cc1ccc(F)cc1)Cc1ccc(F)cc1)Cc1ccc(F)cc1)Cc1ccc(F)cc1)Cc1ccc(F)cc1 [Compound 20] (H-[Nlys][N(4-F-Bzl)Gly][Nlys][N(4-F-Bzl)Gly][Nlys][N(4-F-Bzl)Gly][Nlys][N(4-F-Bzl)Gly][Nlys][N(4-F-Bzl)Gly]-NH2) | > 5 mg/mL |

Moving on to another compound below.
NCCCCNCC(=O)N(CC(=O)N(CCCCN)CC(=O)N(CC(=O)N(CCCCN)CC(=O)N(CC(=O)N(CCCCN)CC(=O)N(CC(=O)N(CCCCN)CC(=O)N(CC(N)=O)Cc1ccc(I)cc1)Cc1ccccc1)Cc1ccc(I)cc1)Cc1ccccc1)Cc1ccc(I)cc1 [Compound 27] (H-[Nlys][NBzl(4-I)Gly][Nlys][Nphe][Nlys][NBzl(4-I)Gly][Nlys][Nphe][Nlys][NBzl(4-I)Gly]-NH2) has a reported critical aggregation concentration (CAC) of > 5 mg/mL

====

- System: S. aureus ATCC 29213
- Format: cell-based, Staphylococcus aureus
- Conditions Used: ATCC 29213, 18 h
Non-standard residues stand in square brackets, D forms with d. Residues, ends and D or L forms follow the SMILES beside them. N(4-Br-benzyl)Gly = O=C(O)CNCc1ccc(Br)cc1; N(4-F-Bzl)Gly = O=C(O)CNCc1ccc(F)cc1; NBzl(4-I)Gly = O=C(O)CNCc1ccc(I)cc1; Nphe = O=C(O)CNCc1ccccc1; Nlys = NCCCCNCC(=O)O
Test Readout: Minimal inhibitory concentration SA^b (µg/mL)
Provide only the numeric value, understood in µg/mL.

Worked examples, 5 compounds total:
| Compound | Unit Name | Minimal inhibitory concentration SA^b |
| --- | --- | --- |
| NCCCCNCC(=O)N(CC(=O)N(CCCCN)CC(=O)N(CC(=O)N(CCCCN)CC(=O)N(CC(N)=O)Cc1ccc(Br)cc1)Cc1ccccc1)Cc1ccc(Br)cc1 [Compound 8] (H-[Nlys][N(4-Br-benzyl)Gly][Nlys][Nphe][Nlys][N(4-Br-benzyl)Gly]-NH2) | µg/mL | 64 |
| NCCCCNCC(=O)N(CC(=O)N(CCCCN)CC(=O)N(CC(=O)N(CCCCN)CC(=O)N(CC(=O)N(CCCCN)CC(=O)N(CC(=O)N(CCCCN)CC(=O)N(CC(N)=O)Cc1ccc(F)cc1)Cc1ccccc1)Cc1ccc(F)cc1)Cc1ccccc1)Cc1ccc(F)cc1 [Compound 24] (H-[Nlys][N(4-F-Bzl)Gly][Nlys][Nphe][Nlys][N(4-F-Bzl)Gly][Nlys][Nphe][Nlys][N(4-F-Bzl)Gly]-NH2) | µg/mL | 512 |
| NCCCCNCC(=O)N(CC(=O)N(CCCCN)CC(=O)N(CC(=O)N(CCCCN)CC(=O)N(CC(=O)N(CCCCN)CC(=O)N(CC(=O)N(CCCCN)CC(=O)N(CC(=O)N(CCCCN)CC(=O)N(CC(N)=O)Cc1ccc(I)cc1)Cc1ccccc1)Cc1ccc(I)cc1)Cc1ccccc1)Cc1ccc(I)cc1)Cc1ccccc1 [Compound 36] (H-[Nlys][Nphe][Nlys][NBzl(4-I)Gly][Nlys][Nphe][Nlys][NBzl(4-I)Gly][Nlys][Nphe][Nlys][NBzl(4-I)Gly]-NH2) | µg/mL | 16 |
| NCCCCNCC(=O)N(CC(=O)N(CCCCN)CC(=O)N(CC(=O)N(CCCCN)CC(=O)N(CC(=O)N(CCCCN)CC(=O)N(CC(N)=O)Cc1ccc(F)cc1)Cc1ccc(F)cc1)Cc1ccc(F)cc1)Cc1ccc(F)cc1 [Compound 11] (H-[Nlys][N(4-F-Bzl)Gly][Nlys][N(4-F-Bzl)Gly][Nlys][N(4-F-Bzl)Gly][Nlys][N(4-F-Bzl)Gly]-NH2) | µg/mL | 256 |
| NCCCCNCC(=O)N(CC(=O)N(CCCCN)CC(=O)N(CC(=O)N(CCCCN)CC(=O)N(CC(=O)N(CCCCN)CC(=O)N(CC(=O)N(CCCCN)CC(=O)N(CC(N)=O)Cc1ccc(I)cc1)Cc1ccccc1)Cc1ccc(I)cc1)Cc1ccccc1)Cc1ccc(I)cc1 [Compound 27] (H-[Nlys][NBzl(4-I)Gly][Nlys][Nphe][Nlys][NBzl(4-I)Gly][Nlys][Nphe][Nlys][NBzl(4-I)Gly]-NH2) | µg/mL | 4 |

Item NCCCCNCC(=O)N(CC(=O)N(CCCCN)CC(=O)N(CC(=O)N(CCCCN)CC(=O)N(CC(N)=O)Cc1ccc(Br)cc1)Cc1ccc(Br)cc1)Cc1ccc(Br)cc1 [Compound 4] (H-[Nlys][N(4-Br-benzyl)Gly][Nlys][N(4-Br-benzyl)Gly][Nlys][N(4-Br-benzyl)Gly]-NH2) was tested on S. aureus ATCC 29213; the reported Minimal inhibitory concentration SA^b is 16
